meta.source: patent US11198704B2

For each record, write down the corresponding CMC.
# assay comment: Critical micelle concentration (CMC) using diphenylhexatriene (DPH) fluorescent stain
# Assay type: physicochemical
# condition label: aqueous solution
# From the text: A method of measuring the CMC is not particularly limited, but the CMC may be measured using methods well known in the related art. For example, the CMC may be measured by a fluorescence staining method using diphenylhexatriene (DPH). […]

Some compounds with recorded CMC:
[
  {
    "compound": "CCCCCCCCCCOC[C@H](O[C@@H]1OC(CO)[C@@H](O[C@H]2OC(CO)[C@@H](O)C(O)C2O)C(O)C1O)[C@@H](COCCCCCCCCCC)O[C@@H]1OC(CO)[C@@H](O[C@H]2OC(CO)[C@@H](O)C(O)C2O)C(O)C1O (stereo partly shown) [M-BTM-C10]",
    "recorded metric": "CMC",
    "endpoint value": "~0.008 mM"
  },
  {
    "compound": "CCCCCCCCCOC[C@H](O[C@@H]1OC(CO)[C@@H](O[C@H]2OC(CO)[C@@H](O)C(O)C2O)C(O)C1O)[C@@H](COCCCCCCCCC)O[C@@H]1OC(CO)[C@@H](O[C@H]2OC(CO)[C@@H](O)C(O)C2O)C(O)C1O (stereo partly shown) [M-BTM-C9]",
    "recorded metric": "CMC",
    "endpoint value": "~0.017 mM"
  },
  {
    "compound": "CCCCCCCCCCCCO[C@@H]1O[C@H](CO)[C@@H](O[C@H]2O[C@H](CO)[C@@H](O)[C@H](O)[C@H]2O)[C@H](O)[C@H]1O [DDM, n-dodecyl-β-D-maltopyranoside, reference compound]",
    "recorded metric": "CMC",
    "endpoint value": "~0.17 mM"
  },
  {
    "compound": "CCCCCCCCCCOC[C@H](O[C@@H]1OC(CO)[C@@H](O[C@H]2OC(CO)[C@@H](O)C(O)C2O)C(O)C1O)[C@H](COCCCCCCCCCC)O[C@@H]1OC(CO)[C@@H](O[C@H]2OC(CO)[C@@H](O)C(O)C2O)C(O)C1O (stereo partly shown) [A-BTM-C10]",
    "recorded metric": "CMC",
    "endpoint value": "~0.011 mM"
  },
  {
    "compound": "CCCCCCCCCCCOC[C@H](O[C@@H]1OC(CO)[C@@H](O[C@H]2OC(CO)[C@@H](O)C(O)C2O)C(O)C1O)[C@@H](COCCCCCCCCCCC)O[C@@H]1OC(CO)[C@@H](O[C@H]2OC(CO)[C@@H](O)C(O)C2O)C(O)C1O (stereo partly shown) [M-BTM-C11]",
    "recorded metric": "CMC",
    "endpoint value": "~0.006 mM"
  },
  {
    "compound": "CCCCCCCCCCOC[C@@H](O[C@@H]1OC(CO)[C@@H](O[C@H]2OC(CO)[C@@H](O)C(O)C2O)C(O)C1O)[C@@H](COCCCCCCCCCC)O[C@@H]1OC(CO)[C@@H](O[C@H]2OC(CO)[C@@H](O)C(O)C2O)C(O)C1O (stereo partly shown) [B-BTM-C10]",
    "recorded metric": "CMC",
    "endpoint value": "~0.013 mM"
  }
]

With those in mind, consider the next compound.
Report CMC for CCCCCCCCCCCOC[C@H](O[C@@H]1OC(CO)[C@@H](O[C@H]2OC(CO)[C@@H](O)C(O)C2O)C(O)C1O)[C@H](COCCCCCCCCCCC)O[C@@H]1OC(CO)[C@@H](O[C@H]2OC(CO)[C@@H](O)C(O)C2O)C(O)C1O (stereo partly shown) [A-BTM-C11] please.
~0.007 mM
